EXPERIMENTAL_SYSTEM: hGIPR (Homo sapiens)
Sequence (P48546 22-466): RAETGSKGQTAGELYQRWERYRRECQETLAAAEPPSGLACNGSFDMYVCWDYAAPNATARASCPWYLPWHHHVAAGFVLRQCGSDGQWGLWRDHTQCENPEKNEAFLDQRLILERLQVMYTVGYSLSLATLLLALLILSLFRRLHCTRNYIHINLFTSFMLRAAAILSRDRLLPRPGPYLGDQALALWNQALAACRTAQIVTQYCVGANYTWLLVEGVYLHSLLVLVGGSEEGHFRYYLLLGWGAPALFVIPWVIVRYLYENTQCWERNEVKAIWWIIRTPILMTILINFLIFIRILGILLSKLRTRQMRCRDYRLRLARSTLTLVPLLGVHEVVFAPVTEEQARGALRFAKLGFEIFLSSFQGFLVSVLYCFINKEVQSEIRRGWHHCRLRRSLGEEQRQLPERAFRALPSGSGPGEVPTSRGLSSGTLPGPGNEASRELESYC
ASSAY_DETAILS: Functional cAMP activity in the presence of 1% HSA
Assay type: cell-based
TEST_SETTINGS: read-out: cAMP Rel EC50, hGIPR
Starred links: 1 amine or outer side, 2 acyl side, 3 side chain; linkers in the order of their positions; H or OH if unused. Non-standard residues stand in square brackets, D forms with d. Groups on a side chain read outwards from the residue. *: point of attachment. C20 diacid = O=C(O)CCCCCCCCCCCCCCCCCCC(=O)*; C18 diacid = O=C(O)CCCCCCCCCCCCCCCCC(=O)*; αMePhe(2-F) = C[C@](N)(Cc1ccccc1F)C(=O)O; γGlu = O=C(O)[C@H](CCC(=O)[*:2])N[*:1]; αMe4Pal = C[C@](N)(Cc1ccncc1)C(=O)O; αMeY = C[C@](N)(Cc1ccc(O)cc1)C(=O)O; 4Pal = N[C@@H](Cc1ccncc1)C(=O)O; αMeL = CC(C)C[C@](C)(N)C(=O)O; Orn = NCCC[C@H](N)C(=O)O; AEEA = NCCOCCOCC(=O)O; Aib = CC(C)(N)C(=O)O
Exam item: assign Yes to entries whose EC50 is below 40 nM and No to entries at or above 40 nM. Note that a value of exactly 40 nM receives No.

SUBSTANCE	CLASS_ASSIGNMENT
H-Y[Aib]QGTFTSDYSI[αMeL]LDKQAAK([AEEA-AEEA-γGlu-C20 diacid])QFVEWLIA[Aib]GPSSGEPPPGEG-NH2 [Example 333]	Yes
H-Y[Aib]Q[dA]T[αMePhe(2-F)]TSD[4Pal]SI[αMeL]LD[Orn]K([AEEA-γGlu-C18 diacid])AQ[αMe4Pal]EFI[dE][αMeY]LIEGGPSSGAPPPSGS-NH2 [Example 1206]	Yes
H-Y[Aib]QGTFTSD[4Pal]SR[αMeL]LDKK([AEEA-γGlu-C18 diacid])AQ[Aib]AFIEYLLE[Aib]GPSSGAPPPSGE-NH2 [Example 114]	Yes
H-Y[Aib]QGTFTSDFS[Orn][αMeL]LDKK([AEEA-AEEA-γGlu-C18 diacid])AQ[Aib]AFIEYLLE[dA]GPSSG[4Pal]PPPSGH-NH2 [Example 257]	Yes
H-Y[Aib]QGTFTSDYSI[αMeL]LDKQAAK([AEEA-AEEA-γGlu-C20 diacid])QFVEWLLA[Aib]GPSSGAPPPSEG-NH2 [Example 327]	No
H-Y[Aib]QGTFTSDFS[Orn][αMeL]LDKK([AEEA-γGlu-C18 diacid])AQ[Aib]AFIEYLLEGG[4Pal]SSGAPPPGGS-NH2 [Example 163]	No
